System: KM-20L2
Experiment: NCI tumour cell line growth inhibition, 48 h
The source made the active and inactive calls. No stated cut-off is given here; in the data, active = GI50 up to about 1.1 µM and inactive = higher.
Your reply should match one of these outcome classes. YES = active, NO = inactive

[in] Returns: the outcome recorded for N#CCC(=O)Nc1cccc(C(F)(F)F)c1 in this assay.
[out] NO

[in] Please let me know the test result on file for CC(C)(C)c1cc([Si](C)(C)C)c(C#N)c([Si](C)(C)C)c1 .
[out] NO

[in] Assay result, entry O=C(O)CCCc1cc2c(s1)-c1cccc3cccc-2c13 — outcome?
[out] NO

[in] I'd appreciate the recorded outcome for COc1ccc(N2C(=O)C3c4[nH]c5ccccc5c4C4CC(C)(C)CC(C)(C)C4C3C2=O)cc1 (stereo not drawn) from this test.
[out] NO

[in] I would be grateful if you could indicate the recorded call for CC(O)C(O)C(N)CC=O (stereo not drawn) .
[out] NO

[in] What classification did O=[N+]([O-])c1ccc(C2=Nn3c(nnc3-c3ccc(Cl)cc3)SC2)o1 end up with in this test?
[out] NO

[in] Per the records of this test, what outcome belongs to CC1=Nc2ccccc2SC(c2c(Cl)cccc2Cl)C1 (stereo not drawn) ?
[out] NO
